The entries below come with measured Ratio values attached.
# TARGET OR TEST SYSTEM: UniProt P35557
# Sequence (P35557 whole entry): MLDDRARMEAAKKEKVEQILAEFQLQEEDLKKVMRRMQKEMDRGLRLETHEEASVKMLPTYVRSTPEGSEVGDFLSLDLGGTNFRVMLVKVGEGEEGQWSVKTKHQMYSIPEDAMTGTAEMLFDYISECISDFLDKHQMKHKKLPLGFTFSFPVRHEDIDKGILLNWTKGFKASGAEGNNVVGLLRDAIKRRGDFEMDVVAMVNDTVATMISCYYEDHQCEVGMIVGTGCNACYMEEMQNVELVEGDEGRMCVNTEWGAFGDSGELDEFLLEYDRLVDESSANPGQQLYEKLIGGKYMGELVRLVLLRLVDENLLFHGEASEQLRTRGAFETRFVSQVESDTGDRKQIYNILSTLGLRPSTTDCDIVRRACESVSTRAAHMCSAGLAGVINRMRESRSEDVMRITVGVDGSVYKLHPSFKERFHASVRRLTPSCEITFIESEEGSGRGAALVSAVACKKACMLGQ
# PROTOCOL DESCRIPTION: Activation of human recombinant glucokinase expressed in Escherichia coli coexpressing G6PDH at 10 uM using 5 mM glucose measured as ratio of enzyme activation in treated to untreated control by G6PDH coupled continuous spectrophotometric assay
ENDPOINT LABEL: Ratio

• Cc1oc(-c2ccccc2C#N)cc1C(=O)Nc1nc2c(s1)CCC2 = 1.25
• Nc1ccc2sc(NC(=O)c3ccccc3)nc2c1 = 1.6
• Cc1oc(CCC(=O)N(C)C)cc1C(=O)Nc1nc2c(s1)CCC2 = 1.62
• CC(=O)c1cccc(-c2cc(C(=O)Nc3nc4c(s3)CCC4)c(C)o2)c1 = 1
• O=C(Nc1nc2c(s1)CCCC2)C1CCCO1 (stereo unspecified) = 1.06
• Cc1oc(-c2ccccc2S(C)(=O)=O)cc1C(=O)Nc1nc2c(s1)CCC2 = 2.81
